# test-description: Atogepant-rifampin drug interaction study: atogepant plasma PK
# Assay type: in vivo, human
# condition-details: both sexes, human, plasma, oral, 60 mg, Treatment A: atogepant 60 mg alone; read-out: AUC0-t Geometric LSM, Reference
measured-endpoint: AUC(0-t) (ng·h/mL)
Form entry: value (ng·h/mL) — number only.

Name the reported AUC(0-t) value associated with the compound C[C@@H]1[C@H](c2c(F)ccc(F)c2F)C[C@H](NC(=O)c2cnc3c(c2)C[C@@]2(C3)C(=O)Nc3ncccc32)C(=O)N1CC(F)(F)F [atogepant]
2770

====

# test-description: Atogepant-topiramate interaction study, cohort 1: atogepant steady-state PK
# Format: in vivo, human
# condition-details: both sexes, human, plasma, atogepant 60 mg QD + topiramate 100 mg BID, day 17; read-out: Tmax,ss (median)
measured-endpoint: Tmax (h)
Form entry: value (h) — number only.

Name the reported Tmax value associated with the compound C[C@@H]1[C@H](c2c(F)ccc(F)c2F)C[C@H](NC(=O)c2cnc3c(c2)C[C@@]2(C3)C(=O)Nc3ncccc32)C(=O)N1CC(F)(F)F
2
